- system-tested: T1, hUPF1 (full-length) (Homo sapiens, UniProt Q92900-2 1-1118)
- T1 sequence: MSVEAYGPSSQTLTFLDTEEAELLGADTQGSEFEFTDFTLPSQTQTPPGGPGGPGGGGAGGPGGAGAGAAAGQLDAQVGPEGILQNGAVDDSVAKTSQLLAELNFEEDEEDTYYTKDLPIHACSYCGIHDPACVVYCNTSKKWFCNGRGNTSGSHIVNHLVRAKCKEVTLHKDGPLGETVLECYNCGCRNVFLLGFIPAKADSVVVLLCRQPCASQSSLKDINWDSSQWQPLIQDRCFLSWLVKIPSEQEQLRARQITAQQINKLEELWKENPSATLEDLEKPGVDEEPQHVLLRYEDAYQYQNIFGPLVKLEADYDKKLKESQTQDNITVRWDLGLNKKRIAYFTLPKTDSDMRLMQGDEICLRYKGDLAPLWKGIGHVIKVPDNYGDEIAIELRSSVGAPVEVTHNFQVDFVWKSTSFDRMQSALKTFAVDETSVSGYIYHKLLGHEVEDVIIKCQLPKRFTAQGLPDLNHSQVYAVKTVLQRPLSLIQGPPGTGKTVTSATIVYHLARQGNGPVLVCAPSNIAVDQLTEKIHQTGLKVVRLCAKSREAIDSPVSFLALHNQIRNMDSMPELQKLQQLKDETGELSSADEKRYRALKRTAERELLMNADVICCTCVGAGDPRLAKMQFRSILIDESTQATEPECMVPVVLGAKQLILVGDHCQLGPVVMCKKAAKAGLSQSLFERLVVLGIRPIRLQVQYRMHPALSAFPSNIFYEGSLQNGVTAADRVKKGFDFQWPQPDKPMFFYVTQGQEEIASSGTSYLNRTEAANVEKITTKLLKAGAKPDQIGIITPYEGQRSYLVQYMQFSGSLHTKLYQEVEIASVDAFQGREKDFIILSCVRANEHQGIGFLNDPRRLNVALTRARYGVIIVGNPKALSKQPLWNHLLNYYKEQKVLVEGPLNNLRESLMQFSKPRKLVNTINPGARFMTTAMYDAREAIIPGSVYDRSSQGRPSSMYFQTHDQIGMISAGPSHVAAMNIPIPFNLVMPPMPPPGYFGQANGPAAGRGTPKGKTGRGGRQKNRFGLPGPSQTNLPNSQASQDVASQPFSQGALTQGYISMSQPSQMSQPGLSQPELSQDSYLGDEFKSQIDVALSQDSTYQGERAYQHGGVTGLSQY
- test-description: EMSA; no nucleotide cofactor; 25 mM HEPES-NaOH pH 7.2, 135 mM NaCl, 2 mM DTT, 1 mg/ml acetylated BSA, 0.1% NP40, 20 min; EMSA 20 C, MST 22 C (20 nM DNA); no nucleotide cofactor or Mg2+ unles
- test-settings: protein: recombinant; tags: GST and His tags removed (thrombin, TEV); residual ENLYFQ linker likely at C-terminus; label: 5' 32P (EMSA)
readout: Kd

1) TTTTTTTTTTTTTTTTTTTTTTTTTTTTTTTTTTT (ssDNA) [d(T)35]; ~1 nM

Cited source: paper PMC5499549
